Source of measurements: PubChem BioAssay (NCI)

I'd be grateful if you could share measured GI50 for these entries.
test system: NCI/ADR-RES ovarian; assay: NCI tumour cell line growth inhibition, 48 h

[Q] Tell me reported GI50 for `NC(=O)c1c(NC(=O)c2ccc3c(c2)OCO3)sc2c1CCC(=O)C2` , tested with NCI/ADR-RES ovarian.
[A] 2200 nM

[Q] Field entry: `Nc1[nH]nc2nc(-c3cccs3)cc(C(F)(F)F)c12`
[A] > 25000 nM

[Q] Field entry: `CC(C)(O)CC(=O)NCCn1ccc2ncnc(Nc3ccc(Oc4cccc(C(F)(F)F)c4)c(Cl)c3)c21`
[A] 2580 nM

---

system: SF-295 CNS; experiment: NCI tumour cell line growth inhibition, 48 h
I'd be grateful if you could share measured TGI for these entries.

[Q] # get_value(readout='TGI', item= `O=C(Nc1ccc(Cl)cc1)Nc1ccc(Nc2nncc3ccccc23)cc1` )
[A] 11 µM

[Q] Field entry: `CC(C)C(OC(=O)c1ccc(NCc2cc(O)ccc2O)cc1)C(C)C`
[A] 15.4 µM

[Q] Field entry: `Cc1ccc2c(c1C)C(=O)/C(=C/c1ccccc1C(=O)O)C2`
[A] > 100 µM

[Q] Field entry: O=c1c2ccccc2nc(-c2ccccc2)n1NC1OC(CO)C(O)C(O)C1O (configuration not stated)
[A] > 100 µM

[Q] Field entry: c1cn(C23C4C5C6C4C2C6C53)cn1 (configuration not stated)
[A] > 100 µM

[Q] Field entry: Nc1ccccc1CC(O)C(=O)O (configuration not stated)
[A] > 100 µM

[Q] Field entry: `c1ccc2c(c1)CCc1c-2n(CCN2CCOCC2)c2ccccc12`
[A] > 100 µM

[Q] Field entry: `CN1CCN(CCCBr)CC1`
[A] > 100 µM

[Q] Field entry: `CSc1n[nH]c(N)c1C(=O)Nc1ccc(C)cc1`
[A] > 100 µM

[Q] Field entry: `CN(/N=C/c1cccc2cccnc12)c1ccccc1`
[A] > 100 µM

[Q] Field entry: `CC[C@H](CO)Nc1nc(NCc2ccccc2)n2ncc(C(C)C)c2n1`
[A] 4.74 µM

[Q] Field entry: C/C=C(/COC(C)=O)C(=O)OC1C=C(C=O)C(C)(C)C=C1C (configuration not stated)
[A] > 100 µM

---

I'd be grateful if you could share measured TGI for these entries.
tested on: NCI-H460 lung; test: NCI tumour cell line growth inhibition, 48 h

[Q] Tell me reported TGI for `CC(=O)Oc1c2oc3ccc(Cl)cc3c(=O)c2c(O)c2ccsc12` , tested with NCI-H460 lung.
[A] > 100 µM

[Q] Field entry: COC1OC2COC1(OC)C1OC(C)(C)OC21 (configuration not stated)
[A] > 100 µM

[Q] Field entry: `C=C(CO[Si](C)(C)C(C)(C)C)C(C)=O`
[A] > 100 µM

[Q] Field entry: `CCOC(=O)NC(=O)c1cn(CCN2CCN(c3ncnc4nc[nH]c34)CC2)c(=O)[nH]c1=O`
[A] > 100 µM

[Q] Field entry: `N#Cc1ccccc1-c1nc2c3c(c(N)ccc3n1)C(=O)c1ccccc1-2`
[A] > 100 µM

[Q] Field entry: `COc1ccc2c(c1)c(CC(=O)O)c(C)n2C(=O)c1ccc(Cl)cc1`
[A] > 100 µM

[Q] Field entry: `CCNC(=O)c1cc(/C=C/c2ccc([N+](=O)[O-])o2)nc2ccccc12`
[A] 17.4 µM

[Q] Field entry: `C/C=C(\C)C(=O)O[C@H]1C=CC(=O)O[C@@H]1CC[C@H](O)[C@H](C)O`
[A] > 100 µM

[Q] Field entry: `COc1c(Cl)cc(NC(=S)C#N)cc1Cl`
[A] 68.2 µM

[Q] Field entry: `O=c1oc2ccccc2cc1-c1cn2cc(Cl)ccc2n1`
[A] 13.6 µM

[Q] Field entry: `Cc1ccc2c(c1C)C(=O)/C(=C/c1ccccc1C(=O)O)C2`
[A] > 100 µM

[Q] Field entry: C=C1C(=O)OC2C1C(OC(=O)/C(C)=C/C)CC(O)(CCl)C1C(O)C3OC3(C)C21O (configuration not stated)
[A] > 50 µM

[Q] Field entry: `C[Si](C)(C)c1ccc(-c2sc(-c3ccc([Si](C)(C)C)s3)c3c2C[Si]2(C3)Cc3c(-c4ccc([Si](C)(C)C)s4)sc(-c4ccc([Si](C)(C)C)s4)c3C2)s1`
[A] > 100 µM

[Q] Field entry: `COC(=O)c1cc2ccc(OC(C)=O)c(OC(C)=O)c2cn1`
[A] 39.7 µM

[Q] Field entry: `COc1cc([C@H]2OC[C@H]3[C@@H]2CO[C@@H]3c2cc(OC)c3c(c2)OCO3)cc(OC)c1OC`
[A] > 100 µM

[Q] Field entry: CCOP(=O)(OCC)C1CC(n2cc(C)c(=O)[nH]c2=O)OC1CO (configuration not stated)
[A] > 100 µM

[Q] Field entry: `Oc1c([Si](c2ccccc2)(c2ccccc2)c2ccccc2)cc2ccccc2c1-c1c(O)c([Si](c2ccccc2)(c2ccccc2)c2ccccc2)cc2ccccc12`
[A] > 100 µM

[Q] Field entry: `COC(=O)c1c(O)ccc2c1c1c(n2Cc2cccc(C)c2)C(=O)c2ccccc2C1=O`
[A] 16.7 µM

[Q] Field entry: `CCN(CC)Cc1ccc(Nc2nccc(-c3cnn4ncccc34)n2)cc1`
[A] 2.99 µM

[Q] Field entry: `S=C1SCN(Cc2ccco2)CN1c1ccc(Br)cc1`
[A] 28.5 µM

[Q] Field entry: `COc1ccc(-c2c(C#N)c(S)n(NS(=O)(=O)c3ccc(C)cc3)c(=O)c2C#N)cc1`
[A] > 100 µM

[Q] Field entry: COc1cc2c(cc1OC)C(Cl)C(c1ccc(Cl)c(Cl)c1)=C2Cl (configuration not stated)
[A] 16 µM
